# target: CLK2 (human)
# assay remarks: KINOMEscan competition binding
# details: compound 10.0 µM
quantity name: kinase still bound, per cent of control (%)
Enter your answer as a number in %; do not include the unit.

Prompt line: Query: kinase still bound, per cent of control; subject: CCC(=O)N1CCN(c2ccc(-n3c(=O)ccc4cnc5ccc(-c6cnc7ccccc7c6)cc5c43)cc2C(F)(F)F)CC1
Response line: 65

Prompt line: Query: kinase still bound, per cent of control; subject: CC(C)n1nc(-c2cc3cc(O)ccc3[nH]2)c2c(N)ncnc21
Response line: 9.7

Prompt line: Query: kinase still bound, per cent of control; subject: COc1ccc(-c2ccc3c(N4CCOCC4)nc(N4C[C@@H](C)O[C@@H](C)C4)nc3n2)cc1CO
Response line: 64

Prompt line: Query: kinase still bound, per cent of control; subject: COC(=O)Nc1ccc(-c2nc(N3CCOCC3)c3cnn(C4CCN(C(=O)OC)CC4)c3n2)cc1
Response line: 57

----------
// per cent of control lookup, one value per entry
# target: CSNK2A1 (human) (UniProt P68400)
# Sequence (P68400 whole entry, looked up): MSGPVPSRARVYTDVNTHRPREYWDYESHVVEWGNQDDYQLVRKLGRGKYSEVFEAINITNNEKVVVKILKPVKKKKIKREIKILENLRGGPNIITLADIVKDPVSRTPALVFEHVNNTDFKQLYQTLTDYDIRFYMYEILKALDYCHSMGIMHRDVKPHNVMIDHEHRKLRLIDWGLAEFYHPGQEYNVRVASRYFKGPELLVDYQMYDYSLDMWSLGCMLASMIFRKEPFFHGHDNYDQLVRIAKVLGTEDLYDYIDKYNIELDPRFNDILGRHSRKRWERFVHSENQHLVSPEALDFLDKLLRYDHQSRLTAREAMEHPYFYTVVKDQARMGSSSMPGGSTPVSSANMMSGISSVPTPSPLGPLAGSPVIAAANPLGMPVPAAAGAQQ
# details: compound 10.0 µM
Enter your answer as a number in %; do not include the unit.

Below, 3 molecules whose answers are already recorded.
{"compound structure": "COC(=O)Nc1ccc(-c2nc(N3CCOCC3)c3cnn(C4CCN(C(=O)OC)CC4)c3n2)cc1", "display unit": "%", "per cent of control": 92}
{"compound structure": "COc1ccc(-c2ccc3c(N4CCOCC4)nc(N4C[C@@H](C)O[C@@H](C)C4)nc3n2)cc1CO", "display unit": "%", "per cent of control": 85}
{"compound structure": "CCC(=O)N1CCN(c2ccc(-n3c(=O)ccc4cnc5ccc(-c6cnc7ccccc7c6)cc5c43)cc2C(F)(F)F)CC1", "display unit": "%", "per cent of control": 95}

Prompt line: Query: per cent of control; subject: CC(C)n1nc(-c2cc3cc(O)ccc3[nH]2)c2c(N)ncnc21
Response line: 40

----------
// per cent of control lookup, one value per entry
# target: CaMK1 (human) (UniProt Q14012)
# Sequence (Q14012 whole entry, looked up): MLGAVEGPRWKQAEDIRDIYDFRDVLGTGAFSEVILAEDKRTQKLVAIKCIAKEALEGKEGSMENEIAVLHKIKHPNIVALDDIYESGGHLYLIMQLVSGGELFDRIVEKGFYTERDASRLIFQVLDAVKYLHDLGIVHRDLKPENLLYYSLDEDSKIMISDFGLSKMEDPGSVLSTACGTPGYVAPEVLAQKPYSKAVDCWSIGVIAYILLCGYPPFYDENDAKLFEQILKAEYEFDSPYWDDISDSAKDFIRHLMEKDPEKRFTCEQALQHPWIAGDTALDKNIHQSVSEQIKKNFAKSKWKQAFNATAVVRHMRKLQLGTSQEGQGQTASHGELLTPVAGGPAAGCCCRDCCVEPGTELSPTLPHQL
# details: compound 1.0 µM
Enter your answer as a number in %; do not include the unit.

{"compound structure": "COc1ccc(-c2ccc3c(N4CCOCC4)nc(N4C[C@@H](C)O[C@@H](C)C4)nc3n2)cc1CO", "display unit": "%", "per cent of control": 96}
{"compound structure": "CCC(=O)N1CCN(c2ccc(-n3c(=O)ccc4cnc5ccc(-c6cnc7ccccc7c6)cc5c43)cc2C(F)(F)F)CC1", "display unit": "%", "per cent of control": 104}
{"compound structure": "COC(=O)Nc1ccc(-c2nc(N3CCOCC3)c3cnn(C4CCN(C(=O)OC)CC4)c3n2)cc1", "display unit": "%", "per cent of control": 97}

Could you now consider this next compound?
Prompt line: Query: per cent of control; subject: CC(C)n1nc(-c2cc3cc(O)ccc3[nH]2)c2c(N)ncnc21
Response line: 80

----------
# Tested on: ROCK2 (rat)
# details: compound 1.0 µM; accession and sequence are those of the human protein
// per cent of control lookup, one value per entry
Enter your answer as a number in %; do not include the unit.

Prompt line: Query: per cent of control; subject: CCC(=O)N1CCN(c2ccc(-n3c(=O)ccc4cnc5ccc(-c6cnc7ccccc7c6)cc5c43)cc2C(F)(F)F)CC1
Response line: 96

Prompt line: Query: per cent of control; subject: COc1ccc(-c2ccc3c(N4CCOCC4)nc(N4C[C@@H](C)O[C@@H](C)C4)nc3n2)cc1CO
Response line: 75

Prompt line: Query: per cent of control; subject: CC(C)n1nc(-c2cc3cc(O)ccc3[nH]2)c2c(N)ncnc21
Response line: 105

Prompt line: Query: per cent of control; subject: COC(=O)Nc1ccc(-c2nc(N3CCOCC3)c3cnn(C4CCN(C(=O)OC)CC4)c3n2)cc1
Response line: 92

----------
# target: PRKD2 (human) (UniProt Q9BZL6)
# Sequence (Q9BZL6 whole entry, looked up): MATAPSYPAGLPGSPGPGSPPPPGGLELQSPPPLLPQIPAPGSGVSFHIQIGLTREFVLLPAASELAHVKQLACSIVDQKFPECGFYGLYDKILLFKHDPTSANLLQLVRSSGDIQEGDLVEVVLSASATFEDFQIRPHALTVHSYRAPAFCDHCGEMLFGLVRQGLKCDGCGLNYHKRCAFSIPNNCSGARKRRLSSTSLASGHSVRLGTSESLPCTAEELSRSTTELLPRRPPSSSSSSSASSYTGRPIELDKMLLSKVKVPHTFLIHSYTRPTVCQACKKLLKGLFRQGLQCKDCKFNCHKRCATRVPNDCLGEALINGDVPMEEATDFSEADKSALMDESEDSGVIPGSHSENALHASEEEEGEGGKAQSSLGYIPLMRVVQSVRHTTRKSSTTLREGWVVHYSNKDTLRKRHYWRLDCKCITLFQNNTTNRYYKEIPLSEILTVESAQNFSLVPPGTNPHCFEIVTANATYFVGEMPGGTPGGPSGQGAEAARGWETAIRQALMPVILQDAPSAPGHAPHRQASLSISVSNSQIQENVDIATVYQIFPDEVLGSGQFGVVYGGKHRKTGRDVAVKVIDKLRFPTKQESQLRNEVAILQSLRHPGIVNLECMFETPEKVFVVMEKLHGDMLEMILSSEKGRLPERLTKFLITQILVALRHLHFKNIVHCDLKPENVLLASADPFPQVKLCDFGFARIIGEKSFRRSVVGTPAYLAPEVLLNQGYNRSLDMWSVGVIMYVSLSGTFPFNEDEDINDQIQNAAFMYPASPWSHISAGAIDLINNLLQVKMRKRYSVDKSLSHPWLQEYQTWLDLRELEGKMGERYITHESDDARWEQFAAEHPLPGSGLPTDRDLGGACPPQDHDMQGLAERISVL
# assay remarks: KINOMEscan competition binding
# details: compound 10.0 µM
// kinase still bound, per cent of control lookup, one value per entry
Enter your answer as a number in %; do not include the unit.

Below, 3 molecules whose answers are already recorded.
{"compound structure": "COC(=O)Nc1ccc(-c2nc(N3CCOCC3)c3cnn(C4CCN(C(=O)OC)CC4)c3n2)cc1", "kinase still bound, per cent of control (%)": 100}
{"compound structure": "CCC(=O)N1CCN(c2ccc(-n3c(=O)ccc4cnc5ccc(-c6cnc7ccccc7c6)cc5c43)cc2C(F)(F)F)CC1", "kinase still bound, per cent of control (%)": 100}
{"compound structure": "COc1ccc(-c2ccc3c(N4CCOCC4)nc(N4C[C@@H](C)O[C@@H](C)C4)nc3n2)cc1CO", "kinase still bound, per cent of control (%)": 96}

Prompt line: Query: kinase still bound, per cent of control; subject: CC(C)n1nc(-c2cc3cc(O)ccc3[nH]2)c2c(N)ncnc21
Response line: 100

----------
# target: MLTK (human) (UniProt Q9NYL2)
# Sequence (Q9NYL2 whole entry, looked up): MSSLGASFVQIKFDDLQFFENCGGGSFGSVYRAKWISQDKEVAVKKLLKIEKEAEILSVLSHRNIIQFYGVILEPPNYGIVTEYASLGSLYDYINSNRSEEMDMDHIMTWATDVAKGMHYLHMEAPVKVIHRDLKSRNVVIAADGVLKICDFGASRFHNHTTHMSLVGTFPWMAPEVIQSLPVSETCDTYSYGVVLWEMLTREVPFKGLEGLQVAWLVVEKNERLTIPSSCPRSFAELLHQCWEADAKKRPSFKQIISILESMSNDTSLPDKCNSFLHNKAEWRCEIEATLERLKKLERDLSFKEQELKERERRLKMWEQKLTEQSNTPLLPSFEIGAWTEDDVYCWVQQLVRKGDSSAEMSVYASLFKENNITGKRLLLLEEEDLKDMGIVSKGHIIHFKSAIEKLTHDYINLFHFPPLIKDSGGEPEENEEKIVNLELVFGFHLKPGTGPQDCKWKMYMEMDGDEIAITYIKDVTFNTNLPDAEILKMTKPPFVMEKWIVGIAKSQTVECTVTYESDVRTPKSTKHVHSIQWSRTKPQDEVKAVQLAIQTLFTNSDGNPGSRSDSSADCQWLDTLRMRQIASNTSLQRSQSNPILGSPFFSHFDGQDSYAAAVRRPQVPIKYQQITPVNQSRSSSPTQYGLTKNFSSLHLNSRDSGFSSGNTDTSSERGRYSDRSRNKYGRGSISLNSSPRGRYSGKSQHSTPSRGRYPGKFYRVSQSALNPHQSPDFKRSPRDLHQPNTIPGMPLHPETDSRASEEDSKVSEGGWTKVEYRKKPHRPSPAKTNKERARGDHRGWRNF
# assay remarks: KINOMEscan competition binding
# details: compound 10.0 µM
quantity name: kinase still bound, per cent of control (%)
Enter your answer as a number in %; do not include the unit.

Below, 2 molecules whose answers are already recorded.
{"compound structure": "CCC(=O)N1CCN(c2ccc(-n3c(=O)ccc4cnc5ccc(-c6cnc7ccccc7c6)cc5c43)cc2C(F)(F)F)CC1", "target": "MLTK (human) (UniProt Q9NYL2)", "kinase still bound, per cent of control, %": 22}
{"compound structure": "COC(=O)Nc1ccc(-c2nc(N3CCOCC3)c3cnn(C4CCN(C(=O)OC)CC4)c3n2)cc1", "target": "MLTK (human) (UniProt Q9NYL2)", "kinase still bound, per cent of control, %": 97}

Prompt line: Query kinase still bound, per cent of control on MLTK (human) (UniProt Q9NYL2) for CC(C)n1nc(-c2cc3cc(O)ccc3[nH]2)c2c(N)ncnc21
Response line: 29

Prompt line: Query kinase still bound, per cent of control on MLTK (human) (UniProt Q9NYL2) for COc1ccc(-c2ccc3c(N4CCOCC4)nc(N4C[C@@H](C)O[C@@H](C)C4)nc3n2)cc1CO
Response line: 100

----------
// per cent of control lookup, one value per entry
# target: RPS6KA3 KD1 KD2 (human)
# details: compound 10.0 µM
Enter your answer as a number in %; do not include the unit.

Prompt line: Query: per cent of control; subject: COC(=O)Nc1ccc(-c2nc(N3CCOCC3)c3cnn(C4CCN(C(=O)OC)CC4)c3n2)cc1
Response line: 87

Prompt line: Query: per cent of control; subject: COc1ccc(-c2ccc3c(N4CCOCC4)nc(N4C[C@@H](C)O[C@@H](C)C4)nc3n2)cc1CO
Response line: 104

Prompt line: Query: per cent of control; subject: CCC(=O)N1CCN(c2ccc(-n3c(=O)ccc4cnc5ccc(-c6cnc7ccccc7c6)cc5c43)cc2C(F)(F)F)CC1
Response line: 81

Prompt line: Query: per cent of control; subject: CC(C)n1nc(-c2cc3cc(O)ccc3[nH]2)c2c(N)ncnc21
Response line: 16

----------
# target: RPS6KA1 KD1 KD2 (human) (UniProt Q15418)
# Sequence (Q15418 whole entry, looked up): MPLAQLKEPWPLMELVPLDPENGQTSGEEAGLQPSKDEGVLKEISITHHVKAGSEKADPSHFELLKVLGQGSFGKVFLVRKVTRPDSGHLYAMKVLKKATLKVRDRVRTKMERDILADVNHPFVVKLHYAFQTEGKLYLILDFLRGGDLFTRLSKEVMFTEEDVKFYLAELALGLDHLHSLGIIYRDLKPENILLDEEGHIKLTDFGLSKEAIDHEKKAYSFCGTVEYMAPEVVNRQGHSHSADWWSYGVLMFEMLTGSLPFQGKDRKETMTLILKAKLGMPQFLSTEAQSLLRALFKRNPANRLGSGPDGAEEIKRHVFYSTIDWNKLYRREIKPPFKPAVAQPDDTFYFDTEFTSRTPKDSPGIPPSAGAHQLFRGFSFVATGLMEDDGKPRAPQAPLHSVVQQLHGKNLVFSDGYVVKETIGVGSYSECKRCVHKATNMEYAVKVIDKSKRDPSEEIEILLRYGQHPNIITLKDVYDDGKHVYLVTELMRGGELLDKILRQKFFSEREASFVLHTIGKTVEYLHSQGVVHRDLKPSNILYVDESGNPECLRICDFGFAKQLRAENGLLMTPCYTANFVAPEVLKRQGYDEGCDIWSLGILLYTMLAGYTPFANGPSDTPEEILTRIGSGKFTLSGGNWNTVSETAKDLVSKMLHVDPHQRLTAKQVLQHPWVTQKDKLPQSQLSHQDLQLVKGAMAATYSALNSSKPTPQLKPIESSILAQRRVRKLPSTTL
# details: compound 10.0 µM
// per cent of control lookup, one value per entry
Enter your answer as a number in %; do not include the unit.

Prompt line: Query: per cent of control; subject: CC(C)n1nc(-c2cc3cc(O)ccc3[nH]2)c2c(N)ncnc21
Response line: 19

----------
# target: UniProt Q86V86
# assay remarks: KINOMEscan competition binding
# details: compound 10.0 µM
quantity name: kinase still bound, per cent of control (%)
Enter your answer as a number in %; do not include the unit.

{"compound structure": "COc1ccc(-c2ccc3c(N4CCOCC4)nc(N4C[C@@H](C)O[C@@H](C)C4)nc3n2)cc1CO", "target": "UniProt Q86V86", "display unit": "%", "kinase still bound, per cent of control": 100}
{"compound structure": "CCC(=O)N1CCN(c2ccc(-n3c(=O)ccc4cnc5ccc(-c6cnc7ccccc7c6)cc5c43)cc2C(F)(F)F)CC1", "target": "UniProt Q86V86", "display unit": "%", "kinase still bound, per cent of control": 96}
{"compound structure": "CC(C)n1nc(-c2cc3cc(O)ccc3[nH]2)c2c(N)ncnc21", "target": "UniProt Q86V86", "display unit": "%", "kinase still bound, per cent of control": 31}

Could you now consider this next molecule?
Prompt line: Query: kinase still bound, per cent of control; subject: COC(=O)Nc1ccc(-c2nc(N3CCOCC3)c3cnn(C4CCN(C(=O)OC)CC4)c3n2)cc1
Response line: 100

----------
# target: UniProt O00750
# Sequence (O00750 whole entry, looked up): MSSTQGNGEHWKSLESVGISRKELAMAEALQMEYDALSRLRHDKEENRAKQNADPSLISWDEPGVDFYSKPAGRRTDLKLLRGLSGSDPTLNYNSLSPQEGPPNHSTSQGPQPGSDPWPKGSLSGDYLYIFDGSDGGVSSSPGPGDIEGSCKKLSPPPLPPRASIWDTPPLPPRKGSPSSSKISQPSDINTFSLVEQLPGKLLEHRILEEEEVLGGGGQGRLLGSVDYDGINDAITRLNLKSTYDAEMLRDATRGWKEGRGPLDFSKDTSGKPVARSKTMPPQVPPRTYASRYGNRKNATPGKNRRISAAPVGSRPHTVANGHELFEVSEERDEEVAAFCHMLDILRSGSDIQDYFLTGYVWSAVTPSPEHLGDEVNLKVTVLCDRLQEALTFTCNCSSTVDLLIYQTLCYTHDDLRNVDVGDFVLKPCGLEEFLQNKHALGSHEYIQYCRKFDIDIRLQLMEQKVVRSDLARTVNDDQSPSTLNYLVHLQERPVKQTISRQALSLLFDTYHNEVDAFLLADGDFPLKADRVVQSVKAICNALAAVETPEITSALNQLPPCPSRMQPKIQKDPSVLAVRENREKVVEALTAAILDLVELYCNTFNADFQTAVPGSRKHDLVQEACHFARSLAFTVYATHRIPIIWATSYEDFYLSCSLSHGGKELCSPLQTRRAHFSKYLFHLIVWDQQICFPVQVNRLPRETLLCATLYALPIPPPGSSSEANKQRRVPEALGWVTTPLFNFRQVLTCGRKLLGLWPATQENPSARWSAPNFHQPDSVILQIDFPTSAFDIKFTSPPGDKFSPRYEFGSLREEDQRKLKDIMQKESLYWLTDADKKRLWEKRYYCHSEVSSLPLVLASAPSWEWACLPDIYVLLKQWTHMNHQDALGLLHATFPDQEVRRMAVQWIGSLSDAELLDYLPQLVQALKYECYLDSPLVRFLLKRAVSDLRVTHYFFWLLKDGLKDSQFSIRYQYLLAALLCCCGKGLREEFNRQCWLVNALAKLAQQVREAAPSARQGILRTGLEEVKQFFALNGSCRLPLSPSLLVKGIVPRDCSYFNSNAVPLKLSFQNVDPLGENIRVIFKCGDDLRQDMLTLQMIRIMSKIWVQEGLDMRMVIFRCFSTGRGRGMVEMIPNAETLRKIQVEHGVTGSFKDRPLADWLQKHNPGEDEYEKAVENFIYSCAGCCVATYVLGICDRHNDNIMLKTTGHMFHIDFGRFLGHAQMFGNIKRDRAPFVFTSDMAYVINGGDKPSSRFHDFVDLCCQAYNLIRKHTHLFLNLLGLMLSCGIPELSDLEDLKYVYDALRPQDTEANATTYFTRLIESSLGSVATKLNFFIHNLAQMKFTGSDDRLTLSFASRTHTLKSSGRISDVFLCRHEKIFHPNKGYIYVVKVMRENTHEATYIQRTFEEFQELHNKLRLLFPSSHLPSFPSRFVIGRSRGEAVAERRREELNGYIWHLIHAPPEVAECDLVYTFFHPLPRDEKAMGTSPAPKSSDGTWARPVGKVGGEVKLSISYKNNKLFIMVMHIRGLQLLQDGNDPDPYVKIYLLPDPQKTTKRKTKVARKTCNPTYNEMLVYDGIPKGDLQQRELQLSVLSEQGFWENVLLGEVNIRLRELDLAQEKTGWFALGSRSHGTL
// pIC50 lookup, one value per entry
Scale: negative log10 of molar concentration, which is what pIC50 denotes.

{"compound structure": "COC(=O)Nc1ccc(-c2nc(N3CCOCC3)c3cnn(C4CCN(C(=O)OC)CC4)c3n2)cc1", "pIC50": 5.29}

Could you now consider this next molecule?
Prompt line: Query pIC50 on UniProt O00750 for CC(C)n1nc(-c2cc3cc(O)ccc3[nH]2)c2c(N)ncnc21
Response line: 7.08
